target: BRAF V600E (Homo sapiens, UniProt P15056, V600E); test: HiBiT cellular BRAF^V600E degradation assay; format: cell-based; conditions: A375.10 cells, 24 h; concentration at which 50% of total cellular BRAF^V600E is degraded
Sequence (P15056 whole entry V600E): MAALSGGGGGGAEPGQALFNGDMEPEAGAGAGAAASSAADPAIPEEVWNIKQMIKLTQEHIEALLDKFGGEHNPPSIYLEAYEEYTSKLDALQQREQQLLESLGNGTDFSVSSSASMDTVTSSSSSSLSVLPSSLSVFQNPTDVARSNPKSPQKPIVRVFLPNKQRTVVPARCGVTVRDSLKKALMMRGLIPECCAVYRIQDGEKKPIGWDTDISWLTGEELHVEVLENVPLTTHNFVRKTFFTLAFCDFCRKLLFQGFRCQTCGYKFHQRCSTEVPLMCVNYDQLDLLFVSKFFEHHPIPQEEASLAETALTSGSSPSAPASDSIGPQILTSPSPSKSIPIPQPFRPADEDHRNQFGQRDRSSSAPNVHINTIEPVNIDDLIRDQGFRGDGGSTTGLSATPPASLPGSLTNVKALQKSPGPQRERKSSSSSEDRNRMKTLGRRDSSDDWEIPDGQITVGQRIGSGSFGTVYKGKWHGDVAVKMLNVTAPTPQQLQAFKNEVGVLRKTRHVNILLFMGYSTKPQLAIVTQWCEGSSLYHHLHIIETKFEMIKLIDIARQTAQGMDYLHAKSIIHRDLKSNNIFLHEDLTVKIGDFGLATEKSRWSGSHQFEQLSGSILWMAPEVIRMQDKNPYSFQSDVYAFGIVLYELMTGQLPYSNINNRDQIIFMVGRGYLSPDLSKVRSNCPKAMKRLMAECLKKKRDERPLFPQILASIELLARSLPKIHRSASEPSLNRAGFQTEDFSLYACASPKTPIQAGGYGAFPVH
assay-endpoint: DC50 (nM)

Below, 8 compounds whose answers are already recorded.
• Cn1nc(N2CCC(=O)NC2=O)c2cc(F)c(N3CCC(O)(CC(=O)N4CCC5(CC4)C[C@@H](n4cnc6ccc(Oc7c(F)ccc(NS(=O)(=O)C8CC8)c7C#N)cc6c4=O)CO5)CC3)cc21 = 31.7
• CCN(C)S(=O)(=O)Nc1ccc(F)c(Oc2ccc3ncn(-c4cnc(N5CCN(C(=O)CN6CCC(c7ccc(NC8CCC(=O)NC8=O)cc7F)CC6)CC5)nc4)c(=O)c3c2)c1C#N (stereo not shown) = 9.97
• CCN(C)S(=O)(=O)Nc1ccc(F)c(Oc2ccc3ncn(-c4cnc(N5CCN(C(=O)CN6CCC(c7ccc(N[C@@H]8CCC(=O)NC8=O)cc7F)CC6)CC5)nc4)c(=O)c3c2)c1F = 41.2
• CCN(C)S(=O)(=O)Nc1ccc(F)c(Oc2ccc3ncn(CCC(C)C4CCN(C(=O)CN5CCC(c6ccc(NC7CCC(=O)NC7=O)cc6F)CC5)CC4)c(=O)c3c2)c1C#N (stereo not shown) = 10.1
• CCN(C)S(=O)(=O)Nc1ccc(F)c(Oc2ccc3ncn(CCC4CCN(C(=O)CN5CCC(c6ccc7c(C8CCC(=O)NC8=O)nn(C)c7c6)CC5)CC4)c(=O)c3c2)c1C#N (stereo not shown) = 28.4
• CCN(C)S(=O)(=O)Nc1ccc(F)c(Oc2ccc3ncn(CCCC4(C)CCN(C(=O)CN5CCC(c6ccc(NC7CCC(=O)NC7=O)cc6F)CC5)CC4)c(=O)c3c2)c1C#N (stereo not shown) = 29.2
• CCN(C)S(=O)(=O)Nc1ccc(F)c(Oc2ccc3ncn(-c4ccc(N5CCN(C(=O)CN6CCC(c7c(F)cc(NC8CCC(=O)NC8=O)cc7OC)CC6)CC5)nc4)c(=O)c3c2)c1C#N (stereo not shown) = 30.3
• CCN(C)S(=O)(=O)Nc1ccc(F)c(Oc2ccc3ncn(CCC4CCN(C(=O)CN5CCC(c6ccc(C7CCC(=O)NC7=O)cc6F)CC5)CC4)c(=O)c3c2)c1C#N (stereo not shown) = 48.6

[P] CC(C)S(=O)(=O)Nc1ccc(F)c(Oc2ccc3ncn([C@H]4COC5(CCN(C(=O)CN6CCC(c7ccc8c(C9CCC(=O)NC9=O)nn(C)c8c7)CC6)CC5)C4)c(=O)c3c2)c1C#N (stereo partly shown)
[Q] CC(C)S(=O)(=O)Nc1ccc(F)c(Oc2ccc3ncn([C@H]4COC5(CCN(C(=O)CN6CCC(c7ccc(NC8CCC(=O)NC8=O)cc7F)CC6)CC5)C4)c(=O)c3c2)c1C#N (stereo partly shown)
[Q] # min-compare on DC50 between P and Q Pick one; state its label.
[A] Q
(Q: 21.1 nM, P: 36.5 nM)

----------
target: BRAF V600E (Homo sapiens, UniProt P15056, V600E); assay: HiBiT cellular BRAF^V600E degradation assay; format: cell-based; details: A375.10 cells, 24 h; residual protein remaining in the cell; read-out: HiBit 24 h Emax
assay-endpoint: Emax (%)

- CCN(C)S(=O)(=O)Nc1ccc(F)c(Oc2ccc3ncc(C4COC5(CCN(C(=O)CC6(O)CCN(c7cc8c(cc7F)c(N7CCC(=O)NC7=O)nn8C)CC6)CC5)C4)nc3c2)c1C#N (single isomer, unassigned): 24.4

[P] N#Cc1c(NS(=O)(=O)C2CCCC2)ccc(F)c1Oc1ccc2ncn(-c3cnc(N4CCN(C(=O)CN5CCC(c6ccc(N[C@@H]7CCC(=O)NC7=O)cc6F)CC5)CC4)nc3)c(=O)c2c1
[Q] CCN(C)S(=O)(=O)Nc1ccc(F)c(Oc2ccc3ncn(-c4cnn(C5CCN(C(=O)CN6CCC(c7c(F)cc(NC8CCC(=O)NC8=O)cc7F)CC6)CC5)c4)c(=O)c3c2)c1C#N (stereo not drawn)
[Q] Kindly compare P with Q and tell me which has the lower Emax figure. Kindly give the label for the entry you pick.
[A] P

----------
molecular target: BRAF V600E (Homo sapiens, UniProt P15056, V600E); assay: HiBiT cellular BRAF^V600E degradation assay; format: cell-based; conditions: A375.10 cells, 24 h; residual protein remaining in the cell; read-out: HiBit 24 h Emax
assay-endpoint: Emax (%)

* CCN(C)S(=O)(=O)Nc1ccc(F)c(Oc2ccc3ncn(C4COC5(CCN(C(=O)CC6(O)CCN(c7ccc(NC8CCC(=O)NC8=O)cc7F)CC6)CC5)C4)c(=O)c3c2)c1C#N (centres unmarked) [Example 27] | 22.2

[1] CCN(C)S(=O)(=O)Nc1ccc(F)c(Oc2ccc3ncn([C@H]4COC5(CCN(C(=O)CN6CCCC(c7ccc(NC8CCC(=O)NC8=O)cc7F)CC6)CC5)C4)c(=O)c3c2)c1C#N (some centres unmarked) [Example 76]
[2] CN(C1CC1)S(=O)(=O)Nc1ccc(F)c(Oc2ccc3ncn([C@H]4COC5(CCN(C(=O)CC6(O)CCN(c7cc8c(cc7F)c(N7CCC(=O)NC7=O)nn8C)CC6)CC5)C4)c(=O)c3c2)c1C#N [Example 197]
[Q] Task for the reader: decide whether 1 or 2 has the larger Emax. Give the label under which the chosen entry appears.
[A] 2

[1] CCN(C)S(=O)(=O)Nc1ccc(F)c(Oc2ccc3ncn(C4CC5(CCN(C(=O)CN6CCC(c7ccc8c(C9CCC(=O)NC9=O)nn(C)c8c7)CC6)CC5)C4)c(=O)c3c2)c1C#N (centres unmarked) [Example 149]
[2] Cn1nc(N2CCC(=O)NC2=O)c2cc(F)c(N3CCC(O)(CC(=O)N4CCC5(CC4)C[C@@H](n4cnc6ccc(Oc7c(F)ccc(NS(=O)(=O)N8CCC8)c7C#N)cc6c4=O)CO5)CC3)cc21 [Example 196]
[Q] Hi, I'm comparing two records. Which one has the lower Emax, 1 or 2 ? Returns: label corresponding to the selected item.
[A] 1

[a] CCN(C)S(=O)(=O)Nc1ccc(F)c(Oc2ccc3ncn(-c4cnc(N5CCN(C(=O)CN6CCC(c7ccc(N[C@@H]8CCC(=O)NC8=O)cc7F)CC6)CC5)nc4)c(=O)c3c2)c1F [Example 139]
[b] CCN(C)S(=O)(=O)Nc1ccc(F)c(Oc2ccc3ncn([C@H]4CCC5(CCN(C(=O)CC6(O)CCN(c7ccc8c(N9CCC(=O)NC9=O)nn(C)c8c7F)CC6)CC5)C4)c(=O)c3c2)c1C#N [Example 172]
[c] N#Cc1c(NS(=O)(=O)C2CCC2)ccc(F)c1Oc1ccc2ncn(-c3cnc(N4CCN(C(=O)CN5CCC(c6ccc(N[C@@H]7CCC(=O)NC7=O)cc6F)CC5)CC4)nc3)c(=O)c2c1 [Example 133]
[Q] Provide the items ranked by increasing Emax. The reply should contain the labels ordered as requested.
[A] c, a, b
(c: 8.2%, a: 13.2%, b: 25.1%)

----------
molecular target: BRAF V600E (Homo sapiens, UniProt P15056, V600E); assay: HiBiT cellular BRAF^V600E degradation assay; assay type: cell-based; settings: A375.10 cells, 24 h; concentration at which 50% of total cellular BRAF^V600E is degraded
assay-endpoint: DC50 (nM)

• CCN(C)S(=O)(=O)Nc1ccc(F)c(Oc2ccc3ncn(C4CC5(CCN(C(=O)NC6CCN(c7ccc(NC8CCC(=O)NC8=O)cc7F)CC6)CC5)C4)c(=O)c3c2)c1C#N (stereo not drawn) = 48.4

[A] CCN(C)S(=O)(=O)Nc1ccc(F)c(Oc2ccc3ncn([C@H]4COC5(CCN(C(=O)CC6(O)CCN(c7ccc8c(N9CCC(=O)NC9=O)nn(C)c8c7F)CC6)CC5)C4)c(=O)c3c2)c1C#N
[B] CCN(C)S(=O)(=O)Nc1ccc(F)c(C(=O)c2ccc3ncn(-c4cnc(N5CCN(C(=O)CN6CCC(c7ccc(N[C@@H]8CCC(=O)NC8=O)cc7F)CC6)CC5)nc4)c(=O)c3c2)c1F
[Q] Between A and B , whose recorded DC50 is greater? Give the chosen item's label as your response.
[A] A

----------
Test system: phospho-ERK (T202/Y204)
Experiment: HTRF phospho-ERK (T202/Y204) assay in A375-NRAS^Q61K cells
Format: cell-based
Conditions: 24 hrs, mean of at least n = 3, read-out: pERK IC50
Procedure: A375-NRAS^Q61K cells (harboring BRAF homozygous V600E mutation and NRAS homozygous Q61K mutation) were purchased from ATCC. DMEM Medium without phenol red and supplemented with L-glutamine was purchased from Corning (Corning, NY, USA). […] Degradation of activated phospho-ERK (T202/Y204) protein was determined based on quantification of FRET signal using the Advanced phospho-ERK (T202/Y204) HTRF assay kit. […] FRET signal was acquired on EnVision™ Multilabel Reader (PerkinElmer, Santa Clara, CA, USA).
pIC50: −log10 of the molar value.
assay-endpoint: pIC50

* CCN(C)S(=O)(=O)Nc1ccc(F)c(Oc2ccc3ncn([C@H]4COC5(CCN(C(=O)CC6(O)CCN(c7cc8c(cc7F)c(N7CCC(=O)N(C)C7=O)nn8C)CC6)CC5)C4)c(=O)c3c2)c1C#N [Compound 157^NMe, reference compound] | 7.43
* CCN(C)S(=O)(=O)Nc1ccc(F)c(Oc2ccc3ncn([C@H]4COC5(CCN(C(=O)CC6(O)CCN(c7cc8c(cc7F)c(N7CCC(=O)NC7=O)nn8C)CC6)CC5)C4)c(=O)c3c2)c1C#N [Compound 157] | 8.11
* COC(=O)N[C@@H](C)CNc1nccc(-c2cn(C(C)C)nc2-c2cc(Cl)cc(NS(C)(=O)=O)c2F)n1 [encorafenib, reference compound] | 7.51
